- Assay System: GTPase HRas (Homo sapiens) (UniProt P01112)
- Sequence (P01112 whole entry, looked up): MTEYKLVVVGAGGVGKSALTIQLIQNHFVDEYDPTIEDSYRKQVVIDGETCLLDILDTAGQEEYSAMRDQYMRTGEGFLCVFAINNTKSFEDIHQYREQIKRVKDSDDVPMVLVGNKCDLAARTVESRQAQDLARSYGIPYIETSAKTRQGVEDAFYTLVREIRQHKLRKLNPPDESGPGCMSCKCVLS
- Experimental Details: Ras wt fluorescent GTP loading blockade – biochemical, wildtype, multiplex bead flow cytometry, dose response (AID 1335)
- Test Settings: bead-based flow cytometry, Bodipy-GTP binding to GST-Ras; at 100 µM (top of the series) unless noted
# class assignment by measured GTP binding, percent of control: class 0 = under 80%, class 1 = from 80% up to 90%, class 2 = 90% and over

{"columns": ["Compound", "Assay System", "Answer Label"],
 "data": [
  ["CCOC(=O)c1cc([N+](=O)[O-])c([N+](=O)[O-])cc1NC(C)=O", "GTPase HRas (Homo sapiens) (UniProt P01112)", "class 0"],
  ["OC(c1ccc(OCc2ccccc2)cc1)c1nnc(-c2ccccc2)o1 (configuration not stated)", "GTPase HRas (Homo sapiens) (UniProt P01112)", "class 2"],
  ["Cc1cc(NC(=O)c2cccc(C(=O)Nc3cc(C)on3)n2)no1", "GTPase HRas (Homo sapiens) (UniProt P01112)", "class 1"],
  ["C/C(=N\\NC(=O)CC1N=C(Cc2ccccc2)NNC1=O)c1ccc(Cl)cc1Cl (configuration not stated)", "GTPase HRas (Homo sapiens) (UniProt P01112)", "class 2"],
  ["Cc1csc(NC(=O)c2cc(=O)[nH]c3ccc(S(=O)(=O)N4CCOCC4)cc23)n1", "GTPase HRas (Homo sapiens) (UniProt P01112)", "class 0"],
  ["O=C(Nn1cc(C(=O)N2CCN(c3ccccc3F)CC2)c2ccccc2c1=O)c1cnccn1", "GTPase HRas (Homo sapiens) (UniProt P01112)", "class 2"],
  ["O=S(=O)(Nc1ncn[nH]1)c1ccc2ccccc2c1", "GTPase HRas (Homo sapiens) (UniProt P01112)", "class 0"],
  ["CC(C)(C)NC(=O)CCN(/N=C/c1ccc([N+](=O)[O-])o1)C1=NS(=O)(=O)c2ccccc21", "GTPase HRas (Homo sapiens) (UniProt P01112)", "class 0"],
  ["CN(C)c1ccc(/C=C/C(=O)c2cccc(Br)c2)cc1", "GTPase HRas (Homo sapiens) (UniProt P01112)", "class 2"],
  ["Nc1nonc1-c1nc2ccccc2n1CC(=O)N/N=C/c1ccc(-c2ccccc2C(=O)O)o1", "GTPase HRas (Homo sapiens) (UniProt P01112)", "class 0"],
  ["COc1cccc2cc(-c3ccnc(=S)[nH]3)oc12", "GTPase HRas (Homo sapiens) (UniProt P01112)", "class 0"],
  ["Cc1ccc(C(C)C)c(OCc2ccccc2C(=O)O)c1", "GTPase HRas (Homo sapiens) (UniProt P01112)", "class 1"],
  ["C=CCN(CC=C)S(=O)(=O)c1ccc(C(=O)Nc2nc3c(s2)CCc2ccccc2-3)cc1", "GTPase HRas (Homo sapiens) (UniProt P01112)", "class 0"],
  ["COc1ccc(C(=O)O)c(OCc2ccccc2C)c1", "GTPase HRas (Homo sapiens) (UniProt P01112)", "class 2"],
  ["CS(=O)(=O)N1N=C(c2ccccc2)CC1c1ccc2c(c1)OCO2 (configuration not stated)", "GTPase HRas (Homo sapiens) (UniProt P01112)", "class 2"],
  ["O=C(CSc1ccc2nnc(-c3cccc(F)c3)n2n1)N1CCCc2ccccc21", "GTPase HRas (Homo sapiens) (UniProt P01112)", "class 1"],
  ["Cn1c(SCC(=O)Nc2cccc(Br)c2)nnc1-c1cc2ccccc2o1", "GTPase HRas (Homo sapiens) (UniProt P01112)", "class 2"]
]}
